This listing pairs molecules with measured Activity of mutant relative to wild-type Gaussia luciferase without the signal peptide.
# test: Luminescence activity assay of purified Gaussia luciferase mutants on coelenterazine derivative ZS2
# Assay type: biochemical
# Set-up: key: ratio of mutant luminescence intensity to wild-type Gaussia luciferase
# condition.context: Substrate ZS2 (Table 16)
readout.name: Activity of mutant relative to wild-type Gaussia luciferase without the signal peptide

{"molecule": "E102K S103T A104G E110G V138D I172: Gaussia luciferase mutant (protein) MGVKVLFALICIAVAEAKPTENNEDFNIVAVASNFATTDLDADRGKLPGKKLPLEVLKEMEANARKAGCTRGCLICLSHIKCTPKMKKFIPGRCHTYEGDKKTGQGGIGGAIVDIPEIPGFKDLEPMEQFIAQVDLCDDCTTGCLKGLANVQCSDLLKKWLPQRCATFASKIQGQVDKIKGAGGD", "endpoint.result": 0.550}
{"molecule": "A30G V31I A32V S33G A36N T37D L40R: Gaussia luciferase mutant (protein, SIGNAL (1)..(17), Gaussia luciferase mutant) MGVKVLFALICIAVAEAKPTENNEDFNIVGIVGNFNDTDRDADRGKLPGKKLPLEVLKEMEANARKAGCTRGCLICLSHIKCTPKMKKFIPGRCHTYEGDKESAQGGIGEAIVDIPEIPGFKDLEPMEQFIAQVDLCVDCTTGCLKGLANVQCSDLLKKWLPQRCATFASKIQGQVDKIKGAGGD", "endpoint.result": 0.116}
